tested on: RPMI-8226 leukemia; experiment: NCI-60 one-dose screen, 48 h; details: 10 µM unless noted
This is part of a sample that, as a whole, favours compounds with a hit. Of some 83,000 tested, about 20% had one in any assay. Calls of active or inactive are those of the source. How the source made its calls: active means growth percent below 10; inactive means the rest.
Classes used: active, inactive

COMPOUND | CLASS_LABEL
O=C(COc1ccc(/C=C2\Oc3ccccc3C2=O)cc1)c1ccc(Cl)cc1 | inactive
O=C(Nc1cccc(C(F)(F)F)c1)Nc1cccc(C(F)(F)F)c1 | active
COc1ccc(C(=NN=C(N)N)c2ccc(OC)cc2)cc1 | inactive
Cc1cc(NCc2cc(Nc3ccnc4cc(Cl)ccc34)ccc2F)nc(N2CCCC2)n1 | active
Cc1ccc(/C=C/c2c(C(=O)/C=C/c3ccc(Cl)cc3)c(C)nc3ccccc23)cc1 | active
Cc1nn(-c2ccccc2)c(Oc2ccc(Cl)cc2)c1/C=N\N=c1/sc2ccccc2n1C | inactive
Nc1n[nH]c2cc(F)c([C@@H]3Nc4c(F)cc5[nH]ncc5c4[C@H]4C5CCC(C5)[C@@H]34)cc12 (stereo not given in full) | active
Cc1ccc(-c2cc(-c3cccnc3)[nH]c(=O)c2C#N)cc1 | inactive
COc1ccc(-c2nc(SCC(=O)Nc3nc(-c4ccccc4)cs3)[nH]c(=O)c2C#N)cc1 | inactive
CC(=O)OC1CCC2(C)C(=CC3C4CCC(=O)C4(C)CCC32)C1 (stereo not given) | inactive
O=C1N=c2cc3c(cc2=C/C1=C/c1sc(=S)n(CCc2ccc(O)cc2)c1O)OCCO3 | inactive
CC1=C([Se]CC(OC(=O)CC[Se]c2ccccc2)C(=O)NCCCCCC(=O)OCc2ccccc2)C(=O)c2ccccc2C1=O (stereo not given) | inactive
COC1=C(OC)C(=O)C(OC)=C(OC)C1=O | inactive
COc1ccc(NC(=O)CSc2nnc(-c3cc(-c4ccccc4)nc4ccccc34)n2-c2ccccc2)cc1 | inactive
Cc1cccc(NC(=O)N/C(N)=N/c2nc(C)c(C)s2)c1 | inactive
COc1ccc(-c2csc(C3=C(O)CN(CCCN4CCCC4=O)C3=N)n2)cc1OC | inactive
NC(=S)Nc1cccc(O)c1 | inactive
O=C(Nc1cccc(Oc2nnc(Cl)c3ccccc23)c1)Nc1ccc(Cl)c(C(F)(F)F)c1 | active
Cc1nc2ccccc2c(/C=C/c2ccc(Cl)cc2)c1C(=O)/C=C/c1ccc(F)cc1 | active
CC(C)CC(NC(=O)CN(Cc1ccccc1)S(C)(=O)=O)C(=O)O (stereo not given) | inactive

====

tested on: NCI-H522 lung; assay: NCI-60 one-dose screen, 48 h; conditions: 10 µM unless noted
The panel holds about 83,000 compounds, 20% with a hit somewhere; the sample as a whole holds those more often. The source made the active and inactive calls. Rule for the calls: active = growth percent below 10; inactive = the rest.
Possible outcomes: True for active, False for inactive

COMPOUND | TESTED_ON | CLASS_LABEL
COC(=O)c1ccc(CSc2nnc(-c3c(C)nc4ccc(C)cn34)o2)cc1 | NCI-H522 lung | False
CCCCCc1nc2c(c3c1CCCC3)CCCC2 | NCI-H522 lung | False
CCN(CC)CCCC(C)Nc1c2ccc(Cl)cc2nc2ccc(O)cc12 (stereo not given) | NCI-H522 lung | False
CCN1C(=O)N(CC)C2Nn3c(s/c(=C4\C(=O)N(C)c5ccccc54)c3=O)=NC21 (stereo not given) | NCI-H522 lung | True
COc1cc(N=Nc2cc(Cc3ccc(N(C)C)cc3)c(N)cc2N(C)C)c2ncccc2c1 | NCI-H522 lung | True
COc1cccc(-c2nn(-c3ccccc3)cc2-c2ccnc(NCCNC(=O)c3ccccc3)c2)c1 | NCI-H522 lung | False
O=c1[nH]ccc2nc(N3CCC(O)CC3)nc(Nc3ccc(N4CCOCC4)cc3)c12 | NCI-H522 lung | False
Cn1cc(-c2csc(-c3ccccc3)n2)c2cccnc21 | NCI-H522 lung | True
Cn1c(=O)c2[nH]c(NN)nc2n(C)c1=O | NCI-H522 lung | False
C=C1C(=O)O[C@H]2[C@H]1CC/C(COC(=O)C(=O)c1cn(C)c3ccc(OC)cc13)=C\CC[C@@]1(C)O[C@@H]21 | NCI-H522 lung | True
